Test system: Brassica napus
PROTOCOL_SUMMARY: Herbicidal activity against rape assessed as inhibition of root growth at 10 mg/L relative to control
Format: functional
inhibition at 10 µg/mL by entry:

>  <COMPOUND>
COC(=O)C(C)Oc1ccc(Oc2nc3c(c(S(C)(=O)=O)nn3-c3ccccc3)c(=O)n2C(=O)Nc2ccccc2F)cc1 (centres undefined)

>  <TEST_SYSTEM>
Brassica napus

>  <inhibition at 10 µg/mL, %>
16.3

$$$$
>  <COMPOUND>
CCOC(=O)C(C)Oc1ccc(Oc2nc3c(c(SCc4ccccc4)nn3-c3ccccc3)c(=O)n2C(=O)Nc2cccc(C)c2)cc1 (centres undefined)

>  <TEST_SYSTEM>
Brassica napus

>  <inhibition at 10 µg/mL, %>
24.4

$$$$
>  <COMPOUND>
CCCOC(=O)C(C)Oc1ccc(Oc2nc3c(c(SC)nn3-c3ccccc3)c(=O)n2C(=O)Nc2ccccc2Cl)cc1 (centres undefined)

>  <TEST_SYSTEM>
Brassica napus

>  <inhibition at 10 µg/mL, %>
5.5

$$$$
>  <COMPOUND>
CCOC(=O)C(C)Oc1ccc(Oc2nc3c(c(SC)nn3-c3ccccc3)c(=O)n2C(=O)Nc2ccccc2)cc1 (centres undefined)

>  <TEST_SYSTEM>
Brassica napus

>  <inhibition at 10 µg/mL, %>
57.4

$$$$
